tgt: transient receptor potential vanilloid-1 (TRPV1) (Rattus norvegicus, UniProt O35433)
Construct: rat recombinant TRPV1 stably expressed in HEK-293 cells
Sequence (O35433 whole entry): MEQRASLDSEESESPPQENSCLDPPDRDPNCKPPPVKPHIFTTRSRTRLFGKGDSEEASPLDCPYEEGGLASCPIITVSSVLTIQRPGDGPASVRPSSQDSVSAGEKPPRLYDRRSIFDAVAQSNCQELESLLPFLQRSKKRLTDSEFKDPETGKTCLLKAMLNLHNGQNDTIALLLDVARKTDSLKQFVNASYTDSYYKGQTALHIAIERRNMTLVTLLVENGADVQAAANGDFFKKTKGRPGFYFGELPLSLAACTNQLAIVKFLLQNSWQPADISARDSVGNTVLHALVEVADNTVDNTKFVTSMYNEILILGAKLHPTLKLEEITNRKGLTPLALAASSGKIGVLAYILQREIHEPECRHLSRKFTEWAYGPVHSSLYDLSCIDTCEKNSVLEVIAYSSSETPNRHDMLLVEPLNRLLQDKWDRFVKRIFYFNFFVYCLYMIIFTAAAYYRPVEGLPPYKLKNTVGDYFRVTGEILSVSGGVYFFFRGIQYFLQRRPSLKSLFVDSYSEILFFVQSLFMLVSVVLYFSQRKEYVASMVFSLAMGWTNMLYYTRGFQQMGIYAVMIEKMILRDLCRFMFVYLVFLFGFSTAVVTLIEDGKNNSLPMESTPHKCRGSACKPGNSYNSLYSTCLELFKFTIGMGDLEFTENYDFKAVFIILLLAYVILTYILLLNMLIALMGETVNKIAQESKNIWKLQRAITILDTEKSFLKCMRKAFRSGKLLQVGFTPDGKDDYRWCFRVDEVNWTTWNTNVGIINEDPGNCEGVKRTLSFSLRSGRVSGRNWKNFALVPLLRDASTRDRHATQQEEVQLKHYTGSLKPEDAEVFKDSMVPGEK
testDetails: intracellular Ca2+ (Fluo-4) assay in HEK-293 cells expressing rat TRPV1
Assay type: cell-based
resultType: EC50

{"columns": ["molecule", "testResult"],
 "data": [
  ["CCCCC/C=C\\C/C=C\\C/C=C\\C/C=C\\CCCC(=O)NCCO [AEA, anandamide]", "240 nM"]
]}

====

tgt: transient receptor potential vanilloid-1 (TRPV1) (Rattus norvegicus, UniProt O35433)
Construct: rat recombinant TRPV1 stably expressed in HEK-293 cells
testDetails: intracellular Ca2+ (Fluo-4) assay in HEK-293 cells expressing rat TRPV1; much lower effect, if any, in wild-type cells or after I-RTX
Format: cell-based
pEC50: −log10 of the molar value.

{"columns": ["compound", "pEC50"],
 "data": [
  ["CCCCC[C@H](O)/C=C/C=C\\C/C=C\\C/C=C\\CCCC(=O)NCCO [15S-HAEA, 15(S)-hydroxy-AEA]", 4.95]
]}
